I'd appreciate it if you could supply hCD71, RLU values for the items below.
- TARGET_ENTITY: T1, recombinant biotinylated human CD71 extracellular domain (human, UniProt P02786 89-760, biotinylated)
- T1 construct: extracellular domain; also called hCD71; huCD71 ECD
- METHOD: solution ELISA
One number for each entry, in RLU.

Take each entry in turn and give its hCD71, RLU.
1. SEQ ID NO 138 (designed binder, FN3 domain) MLPTPKNLVVSRVTEDSARLSWTAPDAAFDSFYIAYAEPRPDGEAIQLRVPGSERSYDLTGLKPGTEYSVLIHGVKGGLLSSPLHASFTT
2. SEQ ID NO 195 (designed binder, FN3 domain) MLPAPKNLVVSRVTEDSARLSWTAPDAAFDSFYIAYAEPRPDGEAIILDVPGSERSYDLTGLKPGTEYSVLIHGVKGGLLSSPLSSIFTT
3. SEQ ID NO 175 (designed binder, FN3 domain) MLPAPKNLVVSRVTEDSARLSWTAPDAAFDSFRISYCETFYHGEAIVLTVPGSERSYDLTGLKPGTEYSVLIHGVKGGLLSSPLIAKFTT
4. SEQ ID NO 114 (designed binder, FN3 domain) MLPAPKNLVVSRVTEDSARLSWTTPDAAFDSFFIGYLEPQPPGEAISLQVPGSERSYDLTGLKPGTEYNVTIQGVKGGFPSSPLFAVFTT

1: 1.08e+06; 2: 4.27e+06; 3: 4.32e+06; 4: 2.6e+06
